The origin of these recorded values is paper PMC6874530.

# test-system: SRC1 peptide (Homo sapiens, UniProt Q15788)
# Sequence (Q15788 2-1441): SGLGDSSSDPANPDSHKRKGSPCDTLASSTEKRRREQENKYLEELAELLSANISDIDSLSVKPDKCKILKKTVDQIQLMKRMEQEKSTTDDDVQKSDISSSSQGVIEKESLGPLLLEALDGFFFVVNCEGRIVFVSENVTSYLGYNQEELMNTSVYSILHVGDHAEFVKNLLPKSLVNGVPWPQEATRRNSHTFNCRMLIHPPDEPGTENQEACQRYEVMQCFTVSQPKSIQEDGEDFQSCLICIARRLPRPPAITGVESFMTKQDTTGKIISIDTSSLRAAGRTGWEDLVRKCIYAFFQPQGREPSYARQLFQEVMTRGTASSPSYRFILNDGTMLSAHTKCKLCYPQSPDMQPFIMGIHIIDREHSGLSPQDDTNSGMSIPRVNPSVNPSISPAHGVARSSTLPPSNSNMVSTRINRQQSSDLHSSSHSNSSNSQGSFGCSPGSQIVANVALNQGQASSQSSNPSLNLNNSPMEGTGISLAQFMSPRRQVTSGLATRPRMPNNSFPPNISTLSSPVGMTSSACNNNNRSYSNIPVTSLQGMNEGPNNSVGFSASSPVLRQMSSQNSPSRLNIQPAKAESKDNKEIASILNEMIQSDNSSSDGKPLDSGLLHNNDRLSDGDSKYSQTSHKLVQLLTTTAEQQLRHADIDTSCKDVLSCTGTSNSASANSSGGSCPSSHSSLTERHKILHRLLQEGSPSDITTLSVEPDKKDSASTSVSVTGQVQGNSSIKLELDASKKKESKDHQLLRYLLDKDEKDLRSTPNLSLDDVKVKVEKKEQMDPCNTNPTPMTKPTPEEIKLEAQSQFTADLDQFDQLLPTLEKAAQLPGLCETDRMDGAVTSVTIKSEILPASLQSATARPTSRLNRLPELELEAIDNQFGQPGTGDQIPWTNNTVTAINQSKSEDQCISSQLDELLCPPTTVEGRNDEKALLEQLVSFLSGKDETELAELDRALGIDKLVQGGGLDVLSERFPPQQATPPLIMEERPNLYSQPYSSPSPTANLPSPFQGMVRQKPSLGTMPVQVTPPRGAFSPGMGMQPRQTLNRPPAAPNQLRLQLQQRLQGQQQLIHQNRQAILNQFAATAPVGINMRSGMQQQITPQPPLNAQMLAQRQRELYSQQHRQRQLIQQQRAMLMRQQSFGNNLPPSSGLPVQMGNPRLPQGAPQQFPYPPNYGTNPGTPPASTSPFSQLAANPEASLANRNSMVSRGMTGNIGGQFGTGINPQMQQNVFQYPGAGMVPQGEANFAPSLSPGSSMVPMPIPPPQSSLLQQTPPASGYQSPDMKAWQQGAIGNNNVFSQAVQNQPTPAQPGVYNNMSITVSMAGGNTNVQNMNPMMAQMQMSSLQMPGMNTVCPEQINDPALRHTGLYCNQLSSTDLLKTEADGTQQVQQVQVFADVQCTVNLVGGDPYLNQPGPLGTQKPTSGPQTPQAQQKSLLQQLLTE
# method-notes: SPR

| binder | measure-unit | Kd |
| --- | --- | --- |
| LXRβ LBD (protein, BMS-852927) AQELMIQQLVAAQLQCNKRSFSDQPKVTPWPLGADPQSRDARQQRFAHFTELAIISVQEIVDFAKQVPGFLQLGREDQIALLKASTIEIMLLETARRYNHETECITFLKDFTYSKDDFHRAGLQVEFINPIFEFSRAMRRLGLDDAEYALLIAINIFSADRPNVQEPGRVEALQQPYVEALLSYTRIKRPQDQLRFPRMLMKLVSLRTLSSVHSEQVFALRLQDKKLPPLLSEIWDVHE | nM | 19800 |
| LXRα LBD (protein, lipogenic agonists (average)) EQLGMIEKLVAAQQQCNRRSFSDRLRVTPWPMAPDPHSREARQQRFAHFTELAIVSVQEIVDFAKQLPGFLQLSREDQIALLKTSAIEVMLLETSRRYNPGSESITFLKDFSYNREDFAKAGLQVEFINPIFEFSRAMNELQLNDAEFALLIAISIFSADRPNVQDQLQVERLQHTYVEALHAYVSIHHPHDRLMFPRMLMKLVSLRTLSSVHSEQVFALRLQDKKLPPLLSEIWDVHE | nM | 1200 |
| LXRα LBD (protein, AZ6) EQLGMIEKLVAAQQQCNRRSFSDRLRVTPWPMAPDPHSREARQQRFAHFTELAIVSVQEIVDFAKQLPGFLQLSREDQIALLKTSAIEVMLLETSRRYNPGSESITFLKDFSYNREDFAKAGLQVEFINPIFEFSRAMNELQLNDAEFALLIAISIFSADRPNVQDQLQVERLQHTYVEALHAYVSIHHPHDRLMFPRMLMKLVSLRTLSSVHSEQVFALRLQDKKLPPLLSEIWDVHE | nM | 1500 |
| LXRβ LBD (protein, 24,25EC) AQELMIQQLVAAQLQCNKRSFSDQPKVTPWPLGADPQSRDARQQRFAHFTELAIISVQEIVDFAKQVPGFLQLGREDQIALLKASTIEIMLLETARRYNHETECITFLKDFTYSKDDFHRAGLQVEFINPIFEFSRAMRRLGLDDAEYALLIAINIFSADRPNVQEPGRVEALQQPYVEALLSYTRIKRPQDQLRFPRMLMKLVSLRTLSSVHSEQVFALRLQDKKLPPLLSEIWDVHE | nM | 2500 |
